molecular target: L858R/T790M/C797S EGFR (Homo sapiens, UniProt P00533, C797S/L858R/T790M); construct: expressed in transfected cells; host or cells: H1975 clone #25 (lentiviral over-expression, endogenous EGFR knocked out by sgRNA); assay: EGFR degradation HTRF assay in H1975-clone #25 (LTC) cells; format: cell-based; settings: NCI-H1975, H1975 # 25-LTC (L858R/T790M/C797S), 16h treatment, maximum percentage of degradation
Sequence (P00533 25-1210 T790M/C797S/L858R): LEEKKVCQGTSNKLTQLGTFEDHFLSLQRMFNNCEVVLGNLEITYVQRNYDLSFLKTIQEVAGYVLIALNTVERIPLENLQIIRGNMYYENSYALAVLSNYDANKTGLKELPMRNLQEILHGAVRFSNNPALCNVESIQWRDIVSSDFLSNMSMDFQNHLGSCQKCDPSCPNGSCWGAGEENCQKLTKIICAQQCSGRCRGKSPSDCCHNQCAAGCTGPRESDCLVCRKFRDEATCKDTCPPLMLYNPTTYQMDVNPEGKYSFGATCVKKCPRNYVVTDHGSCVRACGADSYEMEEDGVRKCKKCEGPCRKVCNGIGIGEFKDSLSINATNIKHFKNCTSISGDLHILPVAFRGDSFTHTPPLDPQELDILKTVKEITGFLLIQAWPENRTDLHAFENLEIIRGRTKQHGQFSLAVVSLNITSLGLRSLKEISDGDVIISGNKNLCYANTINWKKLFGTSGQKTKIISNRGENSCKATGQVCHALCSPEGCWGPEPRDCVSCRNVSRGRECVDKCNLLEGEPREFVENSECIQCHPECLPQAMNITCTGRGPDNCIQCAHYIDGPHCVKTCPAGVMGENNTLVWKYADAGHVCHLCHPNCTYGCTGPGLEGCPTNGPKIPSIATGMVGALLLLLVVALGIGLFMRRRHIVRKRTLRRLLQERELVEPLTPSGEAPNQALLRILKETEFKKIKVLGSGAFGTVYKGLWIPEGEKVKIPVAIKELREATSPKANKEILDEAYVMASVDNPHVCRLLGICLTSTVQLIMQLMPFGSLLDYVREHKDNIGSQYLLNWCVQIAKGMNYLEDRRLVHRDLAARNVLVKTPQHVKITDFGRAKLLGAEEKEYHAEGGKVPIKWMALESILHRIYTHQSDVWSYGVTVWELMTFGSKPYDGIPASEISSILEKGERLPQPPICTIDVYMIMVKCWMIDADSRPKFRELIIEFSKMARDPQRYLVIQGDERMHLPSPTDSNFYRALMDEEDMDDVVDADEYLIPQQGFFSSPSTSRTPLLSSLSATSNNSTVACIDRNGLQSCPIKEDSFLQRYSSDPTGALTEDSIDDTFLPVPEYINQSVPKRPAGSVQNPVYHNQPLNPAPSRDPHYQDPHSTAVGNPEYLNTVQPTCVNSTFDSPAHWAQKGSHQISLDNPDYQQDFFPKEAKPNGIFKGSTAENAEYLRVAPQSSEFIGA
ENDPOINT_NAME: Dmax (%)

COMPOUND	SYSTEM	Dmax / %
Cc1cc2cc(n1)-c1cnn(C)c1OCCC[C@@H](C)CN1/C(=N/C2=O)Nc2ccc(N3CCN(C4CCN(c5cnc([C@H]6CCC(=O)NC6=O)c(F)c5)CC4)CC3=O)cc21 (single isomer, unassigned) [Example 460]	L858R/T790M/C797S EGFR (Homo sapiens, UniProt P00533, C797S/L858R/T790M)	89.6
Cc1cc2cc(n1)-c1cnn(C)c1OCCC[C@@H](C)CN1/C(=N/C2=O)Nc2ccc(C(=O)N3CC[C@H](N(C)CCc4cc(F)c([C@H]5CCC(=O)NC5=O)c(F)c4)C3)cc21 [Example 297]	L858R/T790M/C797S EGFR (Homo sapiens, UniProt P00533, C797S/L858R/T790M)	91.7
Cc1cc2cc(n1)-c1cnn(C)c1OCCC[C@@H](C)CN1/C(=N/C2=O)Nc2ccc(C(=O)N3CC4(C3)CN(C(=O)C3CN(c5cc(F)c([C@H]6CCC(=O)NC6=O)c(F)c5)C3)C4)cc21 [Example 229]	L858R/T790M/C797S EGFR (Homo sapiens, UniProt P00533, C797S/L858R/T790M)	86.9

* * *

target: L858R/T790M/C797S EGFR (Homo sapiens, UniProt P00533, C797S/L858R/T790M); construct: expressed in transfected cells; host or cells: H1975 clone #25 (lentiviral over-expression, endogenous EGFR knocked out by sgRNA); assay: EGFR degradation HTRF assay in H1975-clone #25 (LTC) cells; format: cell-based; conditions: NCI-H1975, H1975 # 25-LTC (L858R/T790M/C797S), 16h treatment, maximum percentage of degradation
ENDPOINT_NAME: Dmax (%)

COMPOUND	SYSTEM	OUTPUT_UNIT	EXPERIMENTAL_RESULT
Cc1cc2cc(n1)-c1cnn(C)c1OCCCC1(CC1)CN1/C(=N/C2=O)Nc2ccc(C(=O)N(C)C3CCN(CCc4cc(F)c([C@H]5CCC(=O)NC5=O)c(F)c4)CC3)cc21 [Example 236]	L858R/T790M/C797S EGFR (Homo sapiens, UniProt P00533, C797S/L858R/T790M)	%	88.4
Cc1cc2cc(n1)-c1cnn(C)c1OCCC[C@@H](C)CN1/C(=N/C2=O)Nc2ccc(C(=O)N3CCC(C4CN(CCc5cc(F)c([C@H]6CCC(=O)NC6=O)c(F)c5)C4)CC3)cc21 [Example 312]	L858R/T790M/C797S EGFR (Homo sapiens, UniProt P00533, C797S/L858R/T790M)	%	85.8
Cc1cc2cc(n1)-c1cnn(C)c1OCCC[C@@H](C)CN1/C(=N/C2=O)Nc2ccc(C(=O)N(C)C3CCN(CC4CCN(c5cc(F)c([C@H]6CCC(=O)NC6=O)c(F)c5)CC4)CC3)cc21 [Example 287]	L858R/T790M/C797S EGFR (Homo sapiens, UniProt P00533, C797S/L858R/T790M)	%	93.5
Cc1cc2cc(n1)-c1cnn(C)c1OCCC[C@@H](C)CN1/C(=N/C2=O)Nc2ccc(C(=O)N[C@H](C)C3CCN(CCc4cc(F)c([C@H]5CCC(=O)NC5=O)c(F)c4)CC3)cc21 [Example 271]	L858R/T790M/C797S EGFR (Homo sapiens, UniProt P00533, C797S/L858R/T790M)	%	81.2
Cc1cc2cc(n1)-c1cnn(C)c1OCCC[C@@H](C)CN1/C(=N/C2=O)Nc2ccc(CN3CCN(C(=O)[C@@H]4CCN(c5cc(F)c(C6CCC(=O)NC6=O)c(F)c5)C4)[C@H](C)C3)cc21 (stereo partly shown) [Example 106]	L858R/T790M/C797S EGFR (Homo sapiens, UniProt P00533, C797S/L858R/T790M)	%	79.1
Cc1cc2cc(n1)-c1cnn(C)c1OCCC[C@@H](C)CN1/C(=N/C2=O)Nc2ccc(N3CCC(C(=O)N(C)CCc4cc(F)c([C@H]5CCC(=O)NC5=O)c(F)c4)CC3)cc21 [Example 335]	L858R/T790M/C797S EGFR (Homo sapiens, UniProt P00533, C797S/L858R/T790M)	%	79.4
Cc1cc2cc(n1)-c1cnn(C)c1OCCC[C@@H](C)CN1/C(=N/C2=O)Nc2ccc(CN3CC4(CCN(C(=O)[C@@H]5CCN(c6cc(F)c([C@H]7CCC(=O)NC7=O)c(F)c6)C5)CC4)C3)cc21 [Example 84]	L858R/T790M/C797S EGFR (Homo sapiens, UniProt P00533, C797S/L858R/T790M)	%	92.7
Cc1cc2cc(n1)-c1cnn(C)c1OCCC[C@@H](C)CN1/C(=N/C2=O)Nc2ccc(C(=O)N(C)[C@@H](C)C3CCN(CCc4cc(F)c(C5CCC(=O)NC5=O)c(F)c4)CC3)cc21 (stereo partly shown) [Example 272]	L858R/T790M/C797S EGFR (Homo sapiens, UniProt P00533, C797S/L858R/T790M)	%	87.2
Cc1cc2cc(n1)-c1c(C(F)F)nn(C)c1OCCC[C@@H](C)CN1/C(=N/C2=O)Nc2ccc(CN3CCN(C(=O)C4CN(c5cc(F)c([C@H]6CCC(=O)NC6=O)c(F)c5)C4)CC3)cc21 [Example 64]	L858R/T790M/C797S EGFR (Homo sapiens, UniProt P00533, C797S/L858R/T790M)	%	76.8
Cc1cc2cc(n1)-c1cnn(C)c1OCCC[C@@H](C)CN1/C(=N/C2=O)Nc2ccc(C(=O)N[C@@H]3CCN(CCc4cc(F)c([C@H]5CCC(=O)NC5=O)c(F)c4)CC3(F)F)cc21 [Example 260]	L858R/T790M/C797S EGFR (Homo sapiens, UniProt P00533, C797S/L858R/T790M)	%	94

Source listed as patent US20240342292A1.
